target: UniProt:O15393; experiment: Fluorogenic kinetic enzyme inhibitor assay, TMPRSS2; assay type: biochemical; design: purchased Cusabio Technology CSB-YP023924HU; conditions: read-out: TMPRSS2 IC50
pIC50: −log10 of the molar value.
Is pIC50 at least 9? Then condition met. If not, condition not met.

query: Determine whether this compound has pIC50 no lower than 9: `CC(=O)N[C@@H](CCCCN)C(=O)N[C@@H](CCC(N)=O)C(=O)N[C@@H](Cc1ccccc1)C(=O)N[C@@H](CCCNC(=N)N)C(=O)c1nccs1`
result: condition not met

* * *

molecular target: hepsin (Homo sapiens); construct: purchased R&D Systems 4776-SE-010; experiment: Fluorogenic kinetic enzyme inhibitor assay, hepsin; type: biochemical; conditions: read-out: Hepsin IC50
Parameter: IC50 (µM)
Just the number in µM, nothing appended.

Kindly note the recorded IC50 for N=C(N)NCCC[C@H](NC(=O)[C@H](CCCCOCc1ccccc1)NC(=O)OCC1c2ccccc2-c2ccccc21)C(=O)c1nc2ccccc2s1 [MF1165] , which is 0.0001

Per the records, this compound ( CC(=O)N[C@H]1Cc2cccc(c2)Oc2ccc(cc2)C[C@@H](C(=O)N[C@H](CCCNC(=N)N)C(=O)c2nc3ccccc3s2)NC(=O)[C@H](CC(C)C)NC1=O [VD5123A] ) has IC50 equal to 0.146

IC50 reading for CC(=O)N[C@@H](CO)C(=O)NCc1cccc(CC(=O)N[C@@H](CC(C)C)C(=O)N[C@@H](CCCNC(=N)N)C(=O)c2nc3ccccc3s2)c1 [MM1132-2] : 0.000326

* * *

Overview of recorded P2 Position Substrate Activity for matriptase (percent substrate cleavage/proteolysis) for various compounds
target: matriptase (Homo sapiens, UniProt Q9Y5Y6); assay: HyCoSuL P4-P2 substrate specificity screening, matriptase; assay type: biochemical; settings: residue fixed at P2 position; P1-Arg HyCoSuL, 100 μM; best recognized amino acid set to 100%
Sequence (Q9Y5Y6 whole entry): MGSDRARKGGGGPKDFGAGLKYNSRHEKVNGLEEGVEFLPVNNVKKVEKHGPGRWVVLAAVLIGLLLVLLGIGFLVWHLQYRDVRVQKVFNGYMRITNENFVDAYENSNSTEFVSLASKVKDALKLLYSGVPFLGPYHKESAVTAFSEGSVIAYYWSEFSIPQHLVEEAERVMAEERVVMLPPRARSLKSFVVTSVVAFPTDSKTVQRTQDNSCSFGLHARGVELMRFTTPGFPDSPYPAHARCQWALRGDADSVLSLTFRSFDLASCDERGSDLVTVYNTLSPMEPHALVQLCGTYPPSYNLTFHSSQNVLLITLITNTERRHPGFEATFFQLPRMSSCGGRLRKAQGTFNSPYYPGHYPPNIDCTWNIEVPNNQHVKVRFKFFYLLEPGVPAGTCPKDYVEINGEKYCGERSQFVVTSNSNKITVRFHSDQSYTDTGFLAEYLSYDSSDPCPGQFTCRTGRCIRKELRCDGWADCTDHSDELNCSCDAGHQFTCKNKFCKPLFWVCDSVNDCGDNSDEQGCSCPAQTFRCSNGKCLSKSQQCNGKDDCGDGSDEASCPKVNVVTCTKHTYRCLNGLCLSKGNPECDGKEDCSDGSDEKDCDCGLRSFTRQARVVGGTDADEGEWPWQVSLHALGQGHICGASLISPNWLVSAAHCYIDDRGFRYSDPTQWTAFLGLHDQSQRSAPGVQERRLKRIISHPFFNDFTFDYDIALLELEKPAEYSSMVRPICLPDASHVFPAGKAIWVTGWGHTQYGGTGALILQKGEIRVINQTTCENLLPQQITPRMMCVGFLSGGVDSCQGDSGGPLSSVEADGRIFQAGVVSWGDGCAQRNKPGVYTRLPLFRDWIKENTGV
Number only, in %; omit the unit.

As a guide, the following entries are already answered.
// sample `N[C@@H](Cc1ccc(F)cc1)C(=O)O` , its P2 Position Substrate Activity for matriptase (percent substrate cleavage/proteolysis) was 65

Lab note: `O=C(O)[C@@H]1CCCCN1` gave P2 Position Substrate Activity for matriptase (percent substrate cleavage/proteolysis) of 10

Consider `CC(C)[C@H](N)C(=O)O` . Its measured P2 Position Substrate Activity for matriptase (percent substrate cleavage/proteolysis) is 8

Okay, now this compound:
// recorded P2 Position Substrate Activity for matriptase (percent substrate cleavage/proteolysis) for `N[C@@H](CCCCOCc1ccccc1)C(=O)O` : 0

* * *

target: matriptase (Homo sapiens); construct: purchased R&D Systems 3946-SEB-010; assay: Fluorogenic kinetic enzyme inhibitor assay, matriptase; format: biochemical; conditions: read-out: Matriptase IC50
Sequence (Q9Y5Y6 615-855 limits assumed): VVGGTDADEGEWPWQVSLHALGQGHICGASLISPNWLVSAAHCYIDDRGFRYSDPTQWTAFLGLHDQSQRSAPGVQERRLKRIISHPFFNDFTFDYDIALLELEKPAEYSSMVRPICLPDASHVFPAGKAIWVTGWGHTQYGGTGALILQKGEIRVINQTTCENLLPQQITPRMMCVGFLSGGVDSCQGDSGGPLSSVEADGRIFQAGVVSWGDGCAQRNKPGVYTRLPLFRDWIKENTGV
Parameter: IC50 (nM)
Provide only the numeric value, understood in nM.

In the examples that follow, each entry is paired with its recorded IC50.
// field: IC50; key: `N=C(N)NCCC[C@H](NC(=O)[C@H](Cc1ccc(F)c(F)c1)NC(=O)OCC1c2ccccc2-c2ccccc21)C(=O)c1nc2ccccc2s1` ; value = 144

Reported IC50 for `N=C(N)NCCC[C@H](NC(=O)[C@H](Cc1ccccc1)NC(=O)[C@H](CCC(N)=O)NS(=O)(=O)C1CC1)C(=O)c1nc2ccccc2s1` was 5.59

Query molecule follows.
Briefly, IC50 measured for CC(=O)N[C@H]1Cc2cccc(c2)Oc2ccc(cc2)C[C@@H](C(=O)N[C@@H](CCCNC(=N)N)C(=O)c2nc3ccccc3s2)NC(=O)[C@H](CC(C)C)NC1=O [VD5123B] : 140

* * *

target: hepsin (Homo sapiens, UniProt P05981); construct: purchased R&D Systems 4776-SE-010; assay: Fluorogenic kinetic enzyme inhibitor assay, hepsin; assay type: biochemical; details: read-out: Hepsin IC50
Sequence (P05981 163-417 limits assumed): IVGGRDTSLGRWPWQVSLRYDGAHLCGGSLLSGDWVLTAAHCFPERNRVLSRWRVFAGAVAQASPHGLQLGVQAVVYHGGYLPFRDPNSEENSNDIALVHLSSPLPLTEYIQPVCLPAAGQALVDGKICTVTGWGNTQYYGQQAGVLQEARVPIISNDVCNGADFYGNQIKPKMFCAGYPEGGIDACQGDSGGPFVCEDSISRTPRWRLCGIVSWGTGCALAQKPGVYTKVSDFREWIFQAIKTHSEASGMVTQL
Sequence (P05981 1-162 partner limits assumed): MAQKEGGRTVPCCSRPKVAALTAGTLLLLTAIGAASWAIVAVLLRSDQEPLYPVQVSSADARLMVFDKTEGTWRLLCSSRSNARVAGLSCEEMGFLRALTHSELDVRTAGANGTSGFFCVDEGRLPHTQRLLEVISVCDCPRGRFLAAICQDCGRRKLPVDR
pIC50: −log10 of the molar value.
Answer Not satisfied if pIC50 is under 9, and Satisfied if it is 9 or more.

query: Given `N=C(N)NCCC[C@H](NC(=O)[C@H](Cc1cn(Cc2ccccc2)cn1)NC(=O)OCC1c2ccccc2-c2ccccc21)C(=O)c1nc2ccccc2s1` , state whether its pIC50 is at least 9.
result: Not satisfied

Others:
query: Kindly determine if pIC50 recorded for `CC(=O)N[C@@H](CC(C)C)C(=O)N[C@@H](CC(C)C)C(=O)N[C@@H](CCCNC(=N)N)C(=O)c1nccs1` is above or exactly 9.
result: Not satisfied

query: Identify whether the reported pIC50 of the following molecule is 9 or greater: `CC(=O)N[C@@H](Cc1cncn1COCc1ccccc1)C(=O)N[C@@H](CCCCNC(=N)N)C(=O)N[C@@H](CCC(C)C)C(=O)N[C@H](CCCNC(=N)N)C(=O)c1nc2ccccc2s1`
result: Not satisfied

query: Could you please find out whether CCC(C)[C@H](NC(C)=O)C(=O)N[C@@H](CCC(N)=O)C(=O)N[C@@H](Cc1ccccc1)C(=O)N[C@@H](CCCNC(=N)N)C(=O)c1nc2ccccc2s1 (stereo partly shown) has pIC50 that meets 9 or exceeds it?
result: Satisfied

* * *

target: TMPRSS2 (Homo sapiens, UniProt O15393); assay: Fluorogenic kinetic enzyme inhibitor assay, TMPRSS2; type: biochemical; design: purchased Cusabio Technology CSB-YP023924HU; conditions: read-out: TMPRSS2 IC50
Sequence (O15393 106-492 limits assumed): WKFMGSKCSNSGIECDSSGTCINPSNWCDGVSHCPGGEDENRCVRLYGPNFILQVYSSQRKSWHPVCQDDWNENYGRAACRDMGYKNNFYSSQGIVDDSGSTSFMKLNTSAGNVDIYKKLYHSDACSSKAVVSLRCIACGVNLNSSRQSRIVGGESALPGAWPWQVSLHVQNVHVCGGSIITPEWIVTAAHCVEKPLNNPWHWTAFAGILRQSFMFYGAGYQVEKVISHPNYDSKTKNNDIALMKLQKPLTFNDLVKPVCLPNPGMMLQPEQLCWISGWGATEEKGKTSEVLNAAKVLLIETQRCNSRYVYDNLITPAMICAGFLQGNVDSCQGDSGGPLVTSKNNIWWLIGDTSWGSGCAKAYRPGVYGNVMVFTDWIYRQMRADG
pIC50: −log10 of the molar value.
pIC50 vs 8: at or above is met, below is not met.

query: Exam item: decide whether the reported pIC50 for `CSCC[C@H](NC(C)=O)C(=O)N[C@@H](CCC(N)=O)C(=O)N[C@@H](Cc1ccccc1)C(=O)N[C@@H](CCCNC(=N)N)C(=O)c1nc2ccccc2s1` is at least 8.
result: met

query: Hello, I need to know if `CN(C)[C@@H](CCC(N)=O)C(=O)N[C@@H](Cc1ccccc1)C(=O)N[C@@H](CCCNC(=N)N)C(=O)c1nc2ccccc2s1` has measured pIC50 not below 8. Thanks!
result: met

query: Item `CC(=O)N[C@@H](CC(C)C)C(=O)N[C@@H](CC(C)C)C(=O)N[C@@H](CCCNC(=N)N)C(=O)c1nccs1` with pIC50 of 8 or above?
result: not met

query: Dear colleague, could you confirm whether `N=C(N)NCCC[C@H](NC(=O)[C@@H](NC(=O)OCc1ccccc1)C1Cc2ccccc2C1)C(=O)c1nc2ccccc2s1` has pIC50 at or above 8?
result: met

query: Assess whether reported pIC50 for CC(=O)N1C(C(=O)N[C@@H](CCC(=O)OC2CCCCC2)C(=O)N[C@@H](Cc2ccc(F)cc2)C(=O)N[C@@H](CCCNC(=N)N)C(=O)c2nc3ccccc3s2)CC2CCCCC21 (stereo partly drawn) sits at 8 or higher.
result: met

Continuing:
query: Determine whether measured pIC50 meets or exceeds 8 for `CC(=O)N[C@H]1Cc2ccc(cc2)OC/C=C\C[C@@H](C(=O)N[C@@H](CCCNC(=N)N)C(=O)c2nc3ccccc3s2)NC(=O)[C@H](CC(C)C)NC1=O`
result: met

query: // inclusive: pIC50 at least 8? input: CC(=O)N[C@H]1Cc2ccc(cc2)Oc2ccc(cc2)C[C@@H](C(=O)N[C@H](CCCNC(=N)N)C(=O)c2nc3ccccc3s2)NC(=O)[C@H](CC(C)C)NC1=O [VD5076A]
result: not met

query: Identify whether the reported pIC50 of the following molecule is 8 or greater: `N=C(N)NCCC[C@H](NC(=O)[C@H](Cc1ccccc1)NC(=O)[C@H](CCC(N)=O)NC(=O)Cc1ccccc1)C(=O)c1nc2ccccc2s1`
result: met

* * *

// values below are reported IC50
target: Factor Xa (Homo sapiens, UniProt P00742); construct: TMPRSS2; Matriptase; Hepsin; HGFA; Thrombin; Factor Xa; assay: Fluorogenic assay, Factor Xa; type: biochemical; conditions: read-out: Factor Xa IC50
Sequence (P00742 235-488 limits assumed): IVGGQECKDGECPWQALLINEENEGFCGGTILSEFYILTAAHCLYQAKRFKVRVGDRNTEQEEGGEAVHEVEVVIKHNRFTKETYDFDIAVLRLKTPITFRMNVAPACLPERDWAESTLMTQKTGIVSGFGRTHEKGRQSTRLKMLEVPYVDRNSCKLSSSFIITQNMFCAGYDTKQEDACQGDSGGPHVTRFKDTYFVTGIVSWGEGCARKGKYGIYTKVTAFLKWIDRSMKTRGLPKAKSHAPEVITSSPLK
Sequence (P00742 41-179 partner limits assumed): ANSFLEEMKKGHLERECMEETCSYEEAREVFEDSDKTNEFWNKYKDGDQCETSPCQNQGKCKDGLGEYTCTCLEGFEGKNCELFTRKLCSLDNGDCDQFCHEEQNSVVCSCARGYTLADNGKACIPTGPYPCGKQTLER
Provide the reading as a plain figure in µM.

Considering CC(=O)N[C@@H](Cc1cncn1COCc1ccccc1)C(=O)N[C@@H](CCCCNC(=N)N)C(=O)N[C@@H](CCC(C)C)C(=O)N[C@H](CCCNC(=N)N)C(=O)c1nc2ccccc2s1 [JH1143-1] , its IC50 with Factor Xa (Homo sapiens, UniProt P00742) was recorded as 4.8

Result for CC(=O)N[C@H]1Cc2cn(nn2)CCCC[C@H](C(=O)N[C@@H](CCCNC(=N)N)C(=O)c2nc3ccccc3s2)NC(=O)[C@H](CC(C)C)NC1=O [VD4090] , tested on Factor Xa (Homo sapiens, UniProt P00742), IC50: 4.29

API: the following record is the query input.
Result for CC(=O)N[C@H]1Cc2ccc(cc2)OCCCC[C@@H](C(=O)N[C@@H](CCCNC(=N)N)C(=O)c2nc3ccccc3s2)NC(=O)[C@H](CC(C)C)NC1=O [VD4072] , tested on Factor Xa (Homo sapiens, UniProt P00742), IC50: 2.65

Every entry's value here was drawn from patent US20250171495A1.
